test system: Vero E6 infected with SARS-CoV-2; assay: morphology score (similarity to uninfected cells); higher = more like uninfected cells; details: 24 h
Lab note: compare morphology score against 0.003. Equal or greater, write TRUE. Smaller, write FALSE.

Please review the entries below; each comes with its answer.
// inclusive: morphology score at least 0.003? input: Cc1ccc(Oc2ccccc2-c2csc(N=C3NCCCN3)n2)c(C)c1 [abafungin] (10 µM)
TRUE

// inclusive: morphology score at least 0.003? input: C[C@H]1CN(C[C@H](Cc2ccccc2)C(=O)NCC(=O)O)CC[C@@]1(C)c1cccc(O)c1 [alvimopan] (10 µM)
TRUE

// inclusive: morphology score at least 0.003? input: CC(=O)SC[C@@H](C)C(=O)N1CCC[C@H]1C(=O)N[C@@H](Cc1ccccc1)C(=O)O [alacepril] (10 µM)
TRUE

// inclusive: morphology score at least 0.003? input: CS(=O)(=O)c1ccc([C@@H](O)[C@@H](CF)NC(=O)C(Cl)Cl)cc1 [florfenicol] (10 µM)
FALSE

// inclusive: morphology score at least 0.003? input: CNC(=O)c1ccccc1Nc1nc(Nc2ccc(N3CCOCC3)cc2OC)ncc1Cl (10 µM)
FALSE

---
// inclusive: morphology score at least 0.003? input: C[C@@]12CC[C@@H]3[C@@](CC[C@H]4[C@@]3(C)CCC[C@@]4(C)C(=O)O)(CC1=O)C2 [isosteviol] (10 µM)
TRUE

// inclusive: morphology score at least 0.003? input: c1ccc([C@H]2CNCc3ccccc32)cc1 [4-phenyl-1,2,3,4-tetrahydroisoquinoline] (10 µM)
FALSE

// inclusive: morphology score at least 0.003? input: c1cc2c(cc1C1CCCCC1)c1c3n2CCNC3CCC1 (configuration not stated) [tetrindole] (0.833333 µM)
FALSE
